B1: NEUROD6 (parent)
chain: YHSPELTTPPGHGTLDNSKSMKPY

# Variants of: B1
# ASSAY DETAILS: protein stability index of a GFP-peptide fusion (GPS, HEK-293T) (PSI 1-6); higher = more stable;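 further: lentivirally expressed fusions sorted by FACS into six bins by GFP to DsRed ratio, PSI derived from sequencing read proportions per bin multiplied by bin number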
# CONDITION: c terminus: a fixed tail appended
Everything with protein stability index lower than 2 is no (0); everything else, including exactly 2, is yes (1).

Example cases with answers are listed next.
INSERT INTO assay_data (sequence_chain, answer_label) VALUES
  ('YHSPELTTPPGHGTLDNSKYMKPY [S20Y]', 'yes (1)'),
  ('YHSPELTTPWGHGTLDNSKSMKPY [P10W]', 'yes (1)'),
  ('YHSPELTTPPGHGWLDNSKSMKPY [T14W]', 'yes (1)'),
  ('YHSPESTTPPGHGTLDNSKSMKPY [L6S]', 'yes (1)');

Request: Identify whether the reported protein stability index of the following variant is 2 or greater: YHSPELTTPPGHGTLDNSKSKKPY [M21K]
Response: yes (1)

Request: Same lookup for YHSPELATPPGHGTLDNSKSMKPY [T7A] , please.
Response: no (0)

Request: Next: YHSPELTTQPGHGTLDNSKSMKPY [P9Q]
Response: yes (1)

Request: Lookup YHSPELTTPPGHLTLDNSKSMKPY [G13L]
Response: yes (1)

Request: Okay, and YHSPELTTPPGHGTLDNSKRMKPY [S20R] ?
Response: no (0)
